For each entry below, report its IC50 value.
molecular target: c-Kit kinase (Homo sapiens (Human)); test: c-Kit biochemical assay (AlphaScreen kinase activity)

// worked examples, IC50 included
# COMPOUND, RECORDED RESULT
data = [
    ("CNC(=O)c1ccc(-c2cc3c(N4CCC(C)(c5nc(C)c(-c6ccc(OC)c(C)c6)[nH]5)CC4)ncnc3[nH]2)cn1 [P-3218]", "0.0001 to 1 µM"),
    ("Cc1nc(C2CCN(c3ncnc4[nH]c(-c5cccc(C(F)(F)F)c5)cc34)CC2)[nH]c1-c1ccccc1 [P-3098]", "1 to 10 µM"),
    ("CCOc1ccc(-c2[nH]c(C3(C)CCN(c4ncnc5[nH]c(-c6cnn(C(F)F)c6)cc45)CC3)nc2C)cc1 [P-3170]", "0.0001 to 1 µM"),
    ("CCOc1ccc(-c2[nH]c(C3CCN(c4ncnc5[nH]c(-c6cnn(C(F)F)c6)cc45)CC3)nc2C)cc1C [P-3139]", "0.0001 to 1 µM"),
    ("Cc1nc(C2CCN(c3ncnc4[nH]c(-c5ccc(C#N)cc5)cc34)CC2)[nH]c1-c1ccc(OC(F)(F)F)cc1 [P-3086]", "1 to 10 µM"),
]

Batch request: IC50 for each of the following compounds.
1. CCOc1ccc(-c2[nH]c(C3(C)CCN(c4ncnc5[nH]c(-c6ccc(NS(C)(=O)=O)cc6)cc45)CC3)nc2C)cc1 [P-3230]
2. COc1ccc(-c2[nH]c(C3(C)CCN(c4ncnc5[nH]c(C)cc45)CC3)nc2C)cc1F [P-3183]
3. Cc1nc(C2(C)CCN(c3ncnc4[nH]c(-c5ccc(OCC(=O)O)cc5)cc34)CC2)[nH]c1-c1ccc(OC(F)F)cc1 [P-3241]
4. COc1cc(-c2cc3c(N4CCC(C)(c5nc(C)c(-c6ccc(OC)c(C)c6)[nH]5)CC4)ncnc3[nH]2)ccn1 [P-3054]
5. CCOc1ccc(-c2[nH]c(C3(C)CCN(c4ncnc5[nH]c(-c6ccc(OCC(=O)O)cc6)cc45)CC3)nc2C)cc1 [P-3224]

### Response
["0.0001 to 1 µM", "0.0001 to 1 µM", "0.0001 to 1 µM", "0.0001 to 1 µM", "0.0001 to 1 µM"]

Batch request: IC50 for each of the following compounds.
1. Cc1cc2c(N3CCC(c4nc(C)c(-c5ccc6c(c5)OCO6)[nH]4)CC3)ncnc2[nH]1 [P-3120]
2. CC(=O)Nc1cccc(-c2cc3c(N4CCC(c5nc(C)c(-c6ccccc6)[nH]5)CC4)ncnc3[nH]2)c1 [P-3071]
3. Cc1nc(C2(C)CCN(c3ncnc4[nH]c(-c5cnn(C(F)F)c5)cc34)CC2)[nH]c1-c1ccc(OC(F)F)cc1 [P-3242]
4. Cc1nc(C2CCN(c3ncnc4[nH]c(-c5ccc(F)cc5)cc34)CC2)[nH]c1-c1ccc2c(c1)OCCO2 [P-3084]
5. Cc1nc(C2CCN(c3ncnc4[nH]c(-c5ccc(F)cc5)cc34)CC2)[nH]c1-c1ccc(Cl)s1 [P-3119]
6. COc1cc(-c2cc3c(N4CCC(c5nc(C)c(-c6ccc(C)c(OC)c6)[nH]5)CC4)ncnc3[nH]2)ccn1 [P-3104]
7. COc1ccc(-c2cc3c(N4CCC(C)(c5nc(C)c(-c6ccc7c(c6)OCO7)[nH]5)CC4)ncnc3[nH]2)cn1 [P-3158]
8. Cc1nc(C2(C)CCN(c3ncnc4[nH]c(-c5ccc(C#N)cc5)cc34)CC2)[nH]c1-c1ccc(OC(F)F)cc1 [P-3195]

### Response
["1 to 10 µM", "0.0001 to 1 µM", "0.0001 to 1 µM", "0.0001 to 1 µM", "1 to 10 µM", "10 to 300 µM", "0.0001 to 1 µM", "0.0001 to 1 µM"]

Batch request: IC50 for each of the following compounds.
1. COc1cc(-c2cc3c(N4CCC(c5nc(C)c(-c6ccc(C)s6)[nH]5)CC4)ncnc3[nH]2)ccn1 [P-3117]
2. COc1cccc(-c2[nH]c(C3(C)CCN(c4ncnc5[nH]c(-c6ccc(N7CCOCC7)nc6)cc45)CC3)nc2C)c1 [P-3223]
3. COc1cc(-c2cc3c(N4CCC(c5nc(C)c(-c6ccc(OC(F)(F)F)cc6)[nH]5)CC4)ncnc3[nH]2)ccn1 [P-3087]
4. CCOc1cc(-c2[nH]c(C3CCN(c4ncnc5[nH]c(-c6ccc(F)cc6)cc45)CC3)nc2C)ccc1C [P-3094]
5. Cc1nc(C2(C)CCN(c3ncnc4[nH]c(-c5cnn(C(F)F)c5)cc34)CC2)[nH]c1-c1ccc(C(F)(F)F)cc1 [P-3179]
6. Cc1cc2c(N3CCC(C)(c4nc(C)c(-c5ccc6c(c5)OC(F)(F)O6)[nH]4)CC3)ncnc2[nH]1 [P-3152]

### Response
["0.0001 to 1 µM", "0.0001 to 1 µM", "1 to 10 µM", "0.0001 to 1 µM", "0.0001 to 1 µM", "1 to 10 µM"]

* * *

biological target: c-Kit kinase (Homo sapiens (Human), UniProt P10721); assay: c-Kit biochemical assay (AlphaScreen kinase activity)
Sequence (P10721 26-976): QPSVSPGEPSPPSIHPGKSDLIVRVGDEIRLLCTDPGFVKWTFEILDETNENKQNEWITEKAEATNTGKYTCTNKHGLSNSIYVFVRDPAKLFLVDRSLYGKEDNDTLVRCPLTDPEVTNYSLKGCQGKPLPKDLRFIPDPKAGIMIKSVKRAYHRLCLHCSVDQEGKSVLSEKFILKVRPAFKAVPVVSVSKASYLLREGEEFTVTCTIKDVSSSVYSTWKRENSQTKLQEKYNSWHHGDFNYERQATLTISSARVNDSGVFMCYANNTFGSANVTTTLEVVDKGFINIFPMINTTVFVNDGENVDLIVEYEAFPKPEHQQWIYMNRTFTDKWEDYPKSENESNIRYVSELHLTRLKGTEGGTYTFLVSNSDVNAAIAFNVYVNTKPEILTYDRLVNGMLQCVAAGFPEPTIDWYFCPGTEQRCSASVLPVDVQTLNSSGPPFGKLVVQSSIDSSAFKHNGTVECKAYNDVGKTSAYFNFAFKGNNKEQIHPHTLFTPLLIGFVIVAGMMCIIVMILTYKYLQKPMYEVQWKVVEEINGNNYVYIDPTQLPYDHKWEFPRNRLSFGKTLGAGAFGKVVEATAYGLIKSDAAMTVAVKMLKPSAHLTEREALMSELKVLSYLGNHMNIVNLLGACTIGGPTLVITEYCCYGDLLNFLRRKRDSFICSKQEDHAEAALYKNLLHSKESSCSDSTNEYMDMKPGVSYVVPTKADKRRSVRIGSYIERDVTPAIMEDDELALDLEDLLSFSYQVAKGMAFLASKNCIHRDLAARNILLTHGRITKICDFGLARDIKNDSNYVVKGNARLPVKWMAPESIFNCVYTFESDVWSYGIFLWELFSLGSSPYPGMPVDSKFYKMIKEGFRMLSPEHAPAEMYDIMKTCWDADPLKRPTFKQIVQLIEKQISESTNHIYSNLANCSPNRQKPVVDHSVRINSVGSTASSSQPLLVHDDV
For each entry below, report its IC50 value.

# MOL, IC50
rows = [
    ("COc1ncc(-c2nc(C3(C)CCN(c4ncnc5[nH]c(C)cc45)CC3)[nH]c2C)cc1F", "1 to 10 µM"),
    ("Cc1nc(C2(C)CCN(c3ncnc4[nH]c(-c5ccc(C#N)cc5)cc34)CC2)[nH]c1-c1ccc2c(c1)OCO2", "0.0001 to 1 µM"),
    ("COc1ccc(-c2[nH]c(C3(C)CCN(c4ncnc5[nH]c(-c6ccc(C(N)=O)cc6)cc45)CC3)nc2C)cc1F", "0.0001 to 1 µM"),
    ("Cc1nc(C2(C)CCN(c3ncnc4[nH]c(-c5ccc(C#N)nc5)cc34)CC2)[nH]c1-c1cccc(OC(F)F)c1", "1 to 10 µM"),
    ("CCc1[nH]c(C2CCN(c3ncnc4[nH]c(-c5ccc(C#N)cc5)cc34)CC2)nc1C", "1 to 10 µM"),
    ("Cc1nc(C2CCN(c3ncnc4[nH]c(-c5ccc(C#N)cc5)cc34)CC2)[nH]c1-c1cccc(F)c1", "1 to 10 µM"),
]

Batch request: IC50 for each of the following compounds.
1. CCOc1ccc(-c2[nH]c(C3(C)CCN(c4ncnc5[nH]c(C)cc45)CC3)nc2C)cc1C
2. COc1ccc(-c2[nH]c(C3CCN(c4ncnc5[nH]c(-c6ccc(F)cc6)cc45)CC3)nc2C)cc1

### Response
1. 0.0001 to 1 µM
2. 0.0001 to 1 µM

* * *

For each entry below, report its IC50 value.
biological target: c-Kit kinase (Homo sapiens (Human), UniProt P10721); test: c-Kit biochemical assay (AlphaScreen kinase activity)

// worked examples, IC50 included
# MOL, IC50
rows = [
    ("COc1ccc(-c2[nH]c(C3(C)CCN(c4ncnc5[nH]c(-c6ccc(C#N)cc6)cc45)CC3)nc2C)cc1F", "0.0001 to 1 µM"),
    ("Cc1nc(C2(C)CCN(c3ncnc4[nH]nc(C)c34)CC2)[nH]c1-c1cccc(OC(F)F)c1", "1 to 10 µM"),
    ("Cc1nc(C2CCN(c3ncnc4[nH]c(-c5cnn(C(F)F)c5)cc34)CC2)[nH]c1-c1ccccc1", "0.0001 to 1 µM"),
]

Batch request: IC50 for each of the following molecules.
1. COc1ccc(-c2cc3c(N4CCC(C)(c5nc(C)c(-c6ccc(Cl)cc6)[nH]5)CC4)ncnc3[nH]2)cn1
2. COc1cccc(-c2[nH]c(C3(C)CCN(c4ncnc5[nH]c(C)cc45)CC3)nc2C)c1

### Response
1. 0.0001 to 1 µM
2. 1 to 10 µM

* * *

biological target: c-Kit kinase (Homo sapiens (Human)); assay: c-Kit biochemical assay (AlphaScreen kinase activity)
For each entry below, report its IC50 value.

// worked examples, IC50 included
# MOL, IC50
rows = [
    ("COc1ccc(-c2[nH]c(C3(C)CCN(c4ncnc5[nH]c(-c6ccnc(OC)c6)cc45)CC3)nc2C)cc1", "0.0001 to 1 µM"),
    ("CCOc1ccc(-c2[nH]c(C3(C)CCN(c4ncnc5[nH]c(-c6ccc(N7CCOCC7)nc6)cc45)CC3)nc2C)cc1C", "0.0001 to 1 µM"),
]

Kindly review the next compound as well.
### Prompt Consider the compound shown here: "Cc1nc(C2CCN(c3ncnc4[nH]c(-c5cccc(S(N)(=O)=O)c5)cc34)CC2)[nH]c1-c1ccccc1" What is its recorded IC50?
### Response 0.0001 to 1 µM
